test system: CD2F1 mice, L1210 leukemia ip, survival T/C; assay: NCI In Vivo Anticancer Drug Screen. Data for tumor model L1210 Leukemia (intraperitoneal) in CD2F1 (CDF1) mice; details: endpoint: mean survival time; dose: 100.0 mg/kg/injection; schedule: Q04DX003 (ip); vehicle: saline with Tween-80; higher = longer survival
Toxic doses and inconclusive results are not listed.

>  <compound>
CCOC(=O)C(C(C)=O)C(=O)c1ccc([N+](=O)[O-])cc1 (stereo unspecified)

>  <target-or-system>
CD2F1 mice, L1210 leukemia ip, survival T/C

>  <T/C>
100 % of control

$$$$
>  <compound>
O=c1cc(-c2ccccc2)[nH]c(-c2ccccc2)c1

>  <target-or-system>
CD2F1 mice, L1210 leukemia ip, survival T/C

>  <T/C>
89 % of control

$$$$
>  <compound>
Cc1ccc(S(=O)(=O)O/N=C2/CCC(C)(C)c3ccccc32)cc1

>  <target-or-system>
CD2F1 mice, L1210 leukemia ip, survival T/C

>  <T/C>
102 % of control

$$$$
>  <compound>
CN(C)c1ccc(C=NCCCN=Cc2ccc(N(C)C)cc2)cc1

>  <target-or-system>
CD2F1 mice, L1210 leukemia ip, survival T/C

>  <T/C>
95 % of control

$$$$
>  <compound>
O=S1(=O)Cc2ccc(Br)cc2C1

>  <target-or-system>
CD2F1 mice, L1210 leukemia ip, survival T/C

>  <T/C>
90 % of control

$$$$
>  <compound>
S=C(Nc1ccc(Cl)cc1)Nc1ccc(Cl)cc1 (tested in a mixture with another compound)

>  <target-or-system>
CD2F1 mice, L1210 leukemia ip, survival T/C

>  <T/C>
91 % of control

$$$$
>  <compound>
O=c1c2ccccc2c(-c2ccccc2)nn1Cc1ccccc1

>  <target-or-system>
CD2F1 mice, L1210 leukemia ip, survival T/C

>  <T/C>
103 % of control

$$$$
>  <compound>
COc1cc(NC(C)=O)c2ncccc2c1Br

>  <target-or-system>
CD2F1 mice, L1210 leukemia ip, survival T/C

>  <T/C>
104 % of control

$$$$
>  <compound>
O=c1[nH]c(=S)[nH]c(-c2ccc(Cl)cc2)c1CCO

>  <target-or-system>
CD2F1 mice, L1210 leukemia ip, survival T/C

>  <T/C>
94 % of control

$$$$
>  <compound>
CC(C)C(Br)C(=O)NC(Cc1ccccc1)C(=O)O (stereo unspecified)

>  <target-or-system>
CD2F1 mice, L1210 leukemia ip, survival T/C

>  <T/C>
101 % of control

$$$$
>  <compound>
Clc1ccc(N=C(Nc2ccc(Cl)cc2)c2ccccc2)cc1

>  <target-or-system>
CD2F1 mice, L1210 leukemia ip, survival T/C

>  <T/C>
104 % of control

$$$$
>  <compound>
C1CCC(N=C(NC2CCCCC2)NC2CCCCC2)CC1

>  <target-or-system>
CD2F1 mice, L1210 leukemia ip, survival T/C

>  <T/C>
109 % of control

$$$$
>  <compound>
CC(=O)N(C(C)=O)c1ccc2c3c(cccc13)CC2

>  <target-or-system>
CD2F1 mice, L1210 leukemia ip, survival T/C

>  <T/C>
104 % of control

$$$$
>  <compound>
O=Cc1cc2c3c(c1)CCCN3CCC2

>  <target-or-system>
CD2F1 mice, L1210 leukemia ip, survival T/C

>  <T/C>
97 % of control

$$$$
>  <compound>
O=[N+]([O-])c1ccc(C(O)C(Br)[N+](=O)[O-])cc1 (stereo unspecified)

>  <target-or-system>
CD2F1 mice, L1210 leukemia ip, survival T/C

>  <T/C>
101 % of control

$$$$
>  <compound>
COc1ccc(Br)cc1C1OC(=O)c2c(OC)c(OC)cc(N)c21 (stereo unspecified)

>  <target-or-system>
CD2F1 mice, L1210 leukemia ip, survival T/C

>  <T/C>
98 % of control

$$$$
>  <compound>
O=C1CSC(=S)N1

>  <target-or-system>
CD2F1 mice, L1210 leukemia ip, survival T/C

>  <T/C>
105 % of control

$$$$
>  <compound>
Cc1ccc(S(=O)(=O)N2CCC(=O)c3ccccc32)cc1

>  <target-or-system>
CD2F1 mice, L1210 leukemia ip, survival T/C

>  <T/C>
101 % of control

$$$$
>  <compound>
O=C(O)C(O)C(O)C(=O)O (stereo unspecified)

>  <target-or-system>
CD2F1 mice, L1210 leukemia ip, survival T/C

>  <T/C>
97 % of control

$$$$
>  <compound>
CC(C)CNC1=CC(=O)c2ccccc2C1=O

>  <target-or-system>
CD2F1 mice, L1210 leukemia ip, survival T/C

>  <T/C>
95 % of control

$$$$
>  <compound>
CCC(=O)c1cccc([N+](=O)[O-])c1

>  <target-or-system>
CD2F1 mice, L1210 leukemia ip, survival T/C

>  <T/C>
102 % of control

$$$$
>  <compound>
CC(=O)Nc1c[n+]([O-])cc2ccccc12

>  <target-or-system>
CD2F1 mice, L1210 leukemia ip, survival T/C

>  <T/C>
94 % of control

$$$$
>  <compound>
CCN(CC)C1=CC(=O)c2ccccc2C1=O

>  <target-or-system>
CD2F1 mice, L1210 leukemia ip, survival T/C

>  <T/C>
103 % of control

$$$$
>  <compound>
O=C(O)c1c2c(nc3ccccc13)Cc1ccccc1-2

>  <target-or-system>
CD2F1 mice, L1210 leukemia ip, survival T/C

>  <T/C>
98 % of control

$$$$
>  <compound>
C=C(c1ccccc1)c1ccc(N(C)C)cc1

>  <target-or-system>
CD2F1 mice, L1210 leukemia ip, survival T/C

>  <T/C>
100 % of control

$$$$
>  <compound>
COc1ccc(CNCCCC2C3CCC(C3)C2CN)cc1 (stereo unspecified)

>  <target-or-system>
CD2F1 mice, L1210 leukemia ip, survival T/C

>  <T/C>
95 % of control

$$$$
